# absorbance at 492 nm listing for each entry below
subjectOfTest: T1, isoform 165 of human VEGF-A (Peprotech) (human, UniProt P15692-4 27-191)
T1 construct: also called human VEGF165; VEGF 165
method: ELISA; antigen coated 1 µg/ml; scFv 10 µg/mL; 9E10-peroxidase

binder: scFv L3H7 antibody fragment (scFv, soluble, from E. coli) scFv: QQVQLVQSGAEVKKPGESLKISCKGSGYSFTSYWIGWVRQMPGKGLEWMGIIYPGDSDTRYSPSFQGQVTISADKSISTAYLQWSSLKASDTAMYYCARPYATDTRIWGQGTMVTVSSAPQAKSSGSGSESKVDQAVVTQEPSLTVSPGGTVTLTCASSTGAVTSGNYPNWFQQRPGQPPRALIYSTSNKHSWTPARFSGSLLGGKAALTLSGAQPEDEAEYYCRLSYDLARPVFGGGTKLTVLG
property: absorbance at 492 nm
result: 2.51

State the recorded absorbance at 492 nm for this entry: soluble scFv 2H1 antibody fragment (scFv, from another filing) scFv: QQVQLVQSGAEVKKPGESLKISCKGSGYSFTSYWIGWVRQMPGKGLEWMGIIYPGDSDTRYSPSFQGQVTISADKSISTAYLQWSSLKASDTAMYYCARLVVRDTEIWGQGTMVTVSSAPQAKSSGSGSESKVDQAVVTQEPSLTVSPGGTVTLTCASSIGAVTSGNYPNWFQQRPGQPPRALIYSTSNKHSWTPARFSGSLLGGKAALTLSGAQPEDEAEYYCLLSYSGARPVFGGGTKLTVLGAAAGSEQKLISEEDLNSHHHHHH
0.665

Input scFv L3H6 antibody fragment (scFv, soluble, from E. coli) scFv: QQVQLVQSGAEVKKPGESLKISCKGSGYSFTSYWIGWVRQMPGKGLEWMGIIYPGDSDTRYSPSFQGQVTISADKSISTAYLQWSSLKASDTAMYYCARQGTHNRKIWGQGTMVTVSSAPQAKSSGSGSESKVDQAVVTQEPSLTVSPGGTVTLTCASSTGAVTSGNYPNWFQQRPGQPPRALIYSTSNKHSWTPARFSGSLLGGKAALTLSGAQPEDEAEYYCRLSYDLARPVFGGGTKLTVLG
2.89

What do you have for scFv L3H5 antibody fragment (scFv, soluble, from E. coli) scFv: QQVQLVQSGAEVKKPGESLKISCKGSGYSFTSYWIGWVRQMPGKGLEWMGIIYPGDSDTRYSPSFQGQVTISADKSISTAYLQWSSLKASDTAMYYCARLVHRYRAIWGQGTMVTVSSAPQAKSSGSGSESKVDQAVVTQEPSLTVSPGGTVTLTCASSTGAVTSGNYPNWFQQRPGQPPRALIYSTSNKHSWTPARFSGSLLGGKAALTLSGAQPEDEAEYYCRLSYDLARPVFGGGTKLTVLG ?
2.8
